Values from the MegaScale stability set (Tsuboyama et al. 2023)

For each of the variants below, state its folding stability dG.
B1: EEHEE_rd4_0647 (parent)
chain: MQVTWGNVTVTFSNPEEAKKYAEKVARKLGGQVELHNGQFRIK

variants of: B1; test: folding stability dG (cDNA display proteolysis); higher = more stable; settings: PBS, room temperature
Answers are plain numbers, in kcal/mol.

>>> reported_value("MQVTWGIVTVTFSNPEEAKKYAEKVARKLGGQVELHNGQFRIK [N7I]")
2.31
>>> reported_value("MQVTWGNVTVTFSNPEEAKKYAEKVARKLGGQVELHNGQFPIK [R41P]")
0.495
>>> reported_value("MQVTWGNVTVTFSNPEEAKKYAEKVARKLGGQVELHNAQFRIK [G38A]")
1.32
>>> reported_value("MQVTWGNVWVTFSNPEEAKKYAEKVARKLGGQVELHNGQFRIK [T9W]")
1.78

Next up:
Can you look up the measured folding stability dG of MQVTWGNVTVTGSNPEEAKKYAEKVARKLGGQVELHNGQFRIK [F12G] for me?
-0.079
